This collection of values is drawn from PubChem BioAssay.

- assay-details: small-molecule binders of probe aLefty1, primary screen, biochemical, small-molecule microarray, 635/667 nm fluorescence (AID 1153);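 further: score merges spot fluorescence with signal-to-noise ratio from the scanned slide images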
- test-settings: higher = more signal
# cutoff 0.1 applies to composite z-score; >= gives Criterion met, < gives Criterion not met

{"input-smiles": "CC(C)N1C(=O)[C@@]2(Cc3ccccc31)c1ccccc1C(=O)N(Cc1ccccc1)[C@H]2c1ccc(CO)cc1", "qualitative-label": "Criterion not met"}
{"input-smiles": "COCCOC(=O)N1C(=O)[C@@]2(c3cc(C#CC4(O)CCCCCC4)ccc31)[C@H](C(N)=O)[C@H]1C(=O)O[C@H](c3ccccc3)[C@H](c3ccccc3)N1[C@@H]2c1ccc(OCCO)cc1", "qualitative-label": "Criterion not met"}
{"input-smiles": "O=C(O)C1=CC[C@H]2C(=O)N(c3ccccc3)C(=O)[C@@H]12", "qualitative-label": "Criterion met"}
{"input-smiles": "C=C(CCCC)C(=O)CC[C@@H](OC(C)=O)c1ccc(OCCO)cc1", "qualitative-label": "Criterion not met"}
{"input-smiles": "C[N+](C)(C)CCCC[C@@H]1NC(=O)[C@H]2C[C@@H](C(=O)NCCCCCN)[C@@H](c3ccc(O)cc3)N2C1=O", "qualitative-label": "Criterion met"}
{"input-smiles": "O=C1O[C@H](c2ccccc2)[C@H](c2ccccc2)N2[C@H]1[C@@H](C(=O)O)[C@]1(C(=O)Nc3ccc(C#CC4(O)CCCCCC4)cc31)[C@H]2c1ccccc1OCCO", "qualitative-label": "Criterion met"}
{"input-smiles": "COC(=O)[C@]1(Cc2ccccc2CN=[N+]=[N-])N=C(c2ccc(OCCCO)cc2)O[C@@H]1c1ccccc1N=[N+]=[N-]", "qualitative-label": "Criterion met"}
{"input-smiles": "C=CCNC(=O)[C@H]1[C@@H]2C(=O)O[C@@H](c3ccccc3)[C@@H](c3ccccc3)N2[C@@H](c2ccc(O)cc2)[C@]12C(=O)Nc1ccc(C#CCC(C(=O)OC)C(=O)OC)cc12", "qualitative-label": "Criterion not met"}
{"input-smiles": "COCCOC(=O)N1C(=O)[C@@]2(c3cc(C#CCC(C(=O)OC)C(=O)OC)ccc31)[C@H](C(N)=O)[C@H]1C(=O)O[C@H](c3ccccc3)[C@H](c3ccccc3)N1[C@@H]2c1ccccc1OCCO", "qualitative-label": "Criterion not met"}
{"input-smiles": "COc1ccc([Si](C)(C)[C@H]2[C@H](CC(=O)N(CCO)Cc3ccccc3)O[C@@]3(C(=O)N(Cc4ccc(N5C(=O)c6cccc7cccc5c67)cc4)c4ccccc43)[C@@H]2C)cc1", "qualitative-label": "Criterion met"}
{"input-smiles": "COCCCNC(=O)[C@@]1(c2ccc([N+](=O)[O-])cc2)CC(=O)N(C2CCCCC2)[C@@H]1c1ccc(CO)cc1I", "qualitative-label": "Criterion not met"}
{"input-smiles": "C=CCN1C(=O)[C@]2(O[C@H](CCO)[C@@H]([Si](C)(C)c3ccc(OC)cc3)[C@@H]2C)c2cc(N3C(=O)c4ccccc4Oc4ccccc43)ccc21", "qualitative-label": "Criterion met"}
{"input-smiles": "COCCOC(=O)N1C(=O)[C@@]2(c3cc(C#CCNC(N)=O)ccc31)[C@H](c1ccccc1OCCO)N1[C@H](c3ccccc3)[C@H](c3ccccc3)OC(=O)[C@H]1[C@@H]2C(=O)N1CCCCCCC1", "qualitative-label": "Criterion met"}
